Test system: 422866-222-R5-J1-PDC complex spheroid viability;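 further: spheroids exposed to compounds for one week before readout; percent of DMSO vehicle wells luminescence so 100% = untreated viability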
Experiment: Anticancer human tumor 422866-222-R5-J1-PDC patient-derived pancreatic adenocarcinoma cell line growth inhibition [POLQ]
Conditions: second compound 0.1 µM; first compound 3.16 µM; stronger effect = lower value
Consider the following molecules and their measured viability, T/C readings.
Provide the reading as a plain figure in %.

1) COc1ccc([C@@H](O)c2cc(-c3ncnc4cc(N5CCOCC5)ccc34)c(F)cc2Cl)nn1 + Cc1cccc(N(C)C(=O)C2C(O)CCN2c2nc(C)cc(C(F)(F)F)c2C#N)c1	54.5
2) CNCc1ccc(-c2[nH]c3cc(F)cc4c3c2CCNC4=O)cc1 + Nc1ccc(C#CCN(C(=O)Cc2ncc(C(F)(F)F)cc2C(F)(F)F)c2ccc(F)cc2)nn1	80.6

Incoming: What viability, T/C appears in the records for this molecule with 422866-222-R5-J1-PDC complex spheroid viability? CNCc1ccc(-c2[nH]c3cc(F)cc4c3c2CCNC4=O)cc1 + Cc1cccc(N(C)C(=O)C2C(O)CCN2c2nc(C)cc(C(F)(F)F)c2C#N)c1
Outgoing: 101

Incoming: Ok, now CCCS(=O)(=O)Nc1ccc(F)c(C(=O)c2c[nH]c3ncc(-c4ccc(Cl)cc4)cc23)c1F + Cc1cccc(N(C)C(=O)C2C(O)CCN2c2nc(C)cc(C(F)(F)F)c2C#N)c1
Outgoing: 200

Incoming: Same lookup for O=c1[nH]cc(F)c(=O)[nH]1 + COC1C(OC(N)=O)C(O)C(Oc2ccc3c(O)c(NC(=O)c4ccc(O)c(CC=C(C)C)c4)c(=O)oc3c2C)OC1(C)C , please.
Outgoing: 82.5

Incoming: Do the same for CCc1cc2c(N3CCc4c(cc(Cn5ccnc5)cc4-c4cn(C)nc4C(F)(F)F)C3=O)cc(C)nc2c(OC)n1 + Nc1ccc(C#CCN(C(=O)Cc2ncc(C(F)(F)F)cc2C(F)(F)F)c2ccc(F)cc2)nn1 please
Outgoing: 98.7

Data origin: PubChem BioAssay AID1963844
